// data source = paper PMC9482650

experimental.target: T1, PDZD2_2, O15018
T1 sequence (O15018 329-429, limits assumed, looked up): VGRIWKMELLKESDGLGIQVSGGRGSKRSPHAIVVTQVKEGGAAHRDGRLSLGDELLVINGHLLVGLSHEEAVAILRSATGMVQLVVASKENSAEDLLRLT
assay: holdup assay
Design: key: below the threshold = too weak to quantify, mostly under pKd 3.1 to 4
assay.conditions: plain residues with an end cap or a label only (N-terminal biotin on a linker: ado-ado)
experimental.readout: pKd

binder	result
PDSYHRRDFW [U2AF2, P26368]	below the threshold
FVFESRKEIL [TBPL1, P62380]	below the threshold
AKADAQESRL [PLCB2, Q00722]	below the threshold
